# assay overview: soluble on expression in E. coli; label from the status in PepcDB or PDB records
quantity: soluble on expression in E. coli

INSERT INTO measurements (monomer_sequence, quantity, val) VALUES
  ('MNNDLAPHLDIALRHSPPGLAATPIPRVDICVGQGFTEKAPCLYRSMICFILQGSKRVAINDNLLSYDSEHYLISALDLPLIGQILDAEDGQPYVAVSLVLDPALLAVLAASMPAVREREQKGIGITINPMSAPLRDTLLRLLSLLDTPDDIPILAPMVERELLYRLLQGPQGRLL', 'soluble on expression in E. coli', 'not soluble'),
  ('MGSDKIHHHHHHMILVTGANGLVGSFLCNELAGKGYRVKALVREKSDTSLLKAVAGSIELVYGDITDAGSLVDAMEDVMCVVHTAAVISFWNKKNKEMYQTNVVGTRNVVDVALEKGVKKMIHISSIAAIGRKATDTRIDEKNNWEESAVNTAYAVTKHQAELEIFRAVEEGLHAVIINPSVILGPGLKGTSSVRLFEYVQQKGKFYTDGDLNYVDVRDVVESIEYFISHETPAGERYILNGGTVSFKTFFEKIAEMLHTNPPSVKASDWMKQIVWRVEAIKAFITGKEPLITKSTARTATNKFEYSADKIMQLSQRSFRPLQDTIYWTCKQLF', 'soluble on expression in E. coli', 'not soluble'),
  ('MGSDKIHHHHHHMQIISHRGYWLHKPERNLTQAFHRSFDFGFGTETDVRDVAGQLVISHDMPVGGELTLDGLLDIMAGRNLPLAINVKADGMALALKKTFARYGHTNWFVFDMAVPDMRSYLIEEVITYSRLSDVEPSPAWLERATGVWLDGFDSEWFSNQVIGDLLSQDKQVCVVSPELHGRDCMALWQQLLEFRSENRLTLCTDTPVDAAIFFK', 'soluble on expression in E. coli', 'not soluble');

---

# assay overview: soluble on expression in E. coli; label from the status in PepcDB or PDB records
quantity: soluble on expression in E. coli

INSERT INTO results (monomer_sequence, val) VALUES
  ('MLIKGLSDTLLENPLWQKTYLRSFMQFYSTNSLSWGQLSYEEGEIRNLHYGLIHSFQTSEIDTDSLPRILPANVPKQYTLCQAGDVAFADASEDTDEIGKAVEFIRTHKASVICGLHTIHGRDIKCKTLLGFKRVAFNSHYFHDQIKRLAQGTKVFSITSSNLSSCYIYIPDIVMQKSIVVLFEAYEEQLITNKRLLEQYEKQKRYLLQQMFILEHHHHHH', 'not soluble'),
  ('MAHHHHHHMMSFTANSGNSPMSQMSPLSQPYTSPQMLPQSSLRPTAPPFTLSGTEDQPTAGAPIRKGGTDPTRYKTTICRNWEMGSCSFKGCTFAHGEEELRMPPRVERYKSSGFDTRRSLTAETPPLYPLNPLPHSGVGRIEHLLNMLYSEVLRERNRFVAHEEANQALEALLKKEQMQREETEVQLEAARWKLEQLRTTVHEASVEINTLLASSPANEELRDRVAMVTQKIASVFSSEDTAVGGGREDEERVMKLLSSLQNCQSTEDM', 'not soluble'),
  ('MSFTTKVKEELIHLSTGDNNELAAIIKLSGSLGLAHQSLHLSITTENAKIARYIYSLIEDAYVIVPEIRYHQKTNLRKNRVYTVYVEQGVETILADLKLADSFFGLETGIEPQVLSDDNAGRSYLKGAFLAAGSIRDPESGKYQLEIYSVYLDHAQDLAQLMQKFMLDAKTIEHKSGAVTYLQKAEDIMDFLIIIGAMSCKEDFEAIKLLREARNDINRANNAETANIAKTISASMKTINNIIKIMDTIGLESLPIELQQVAQLRVKHPDYSIQQVADALEFPITKSGVNHRLRKINKIADDL', 'not soluble'),
  ('MPLDPICKKIISRDTEYFSDYGGKNYYFCSSECKHKFDALEKSVIRLKRNLSEKEKISFGKLKRDIIKPGICTLCGACAASCEYITIKDEKPELIGPCKACGVCYYQCPRTITTEEGLIGSFRYAYAAQSAIPEIKGQDGGVVTSLLLYALDEGLIDCAVVTVHSEEEPWKPVPIVAKTREEILKSSGSIYSHSMTLEALMSAVKQGMNSVAFVGTSCNIDAVTKMQKSSYGFLHLFMRAKVLKLGLFCMDTFAYEGIKAVLESYGITLDNVDAMKIRKGKFEVALKDGKEHIFELSEFDEYRSSSCRFCTDLTAENSDISFGGVGSPRGYTTVLARSAIGYEIFNEAIDNGYIEARQLTDDELEKVLNLAKMKKVQMYDLHRRQKTLEHHHHHH', 'not soluble'),
  ('MGSDKIHHHHHHMELLNSMSKSLDQLLSLVNHSEIASIKATLSKIIEVIHNPESSVMDLKNLIEIDPPLAANVLRRANSAFYGMRRGIHSIMDAIIFIGFDAVKELTLNQKFFELFQKNGVEIHGYSRRVLWEHSIGVALCGKLIYRREFRKNGGDMYTAGLIHDIGIIVEDQFLHAELLSILADKEEHERDLHSAEADVLGYCHEDIGKRLAEDWNFPEELCLVLGEAERPETSEGPRLLLADTLYVANCACQLRKVGFSELGRLDRPAYEDCLNRLRIKERALDFIMDEVNAQIALMKNDGWF', 'not soluble'),
  ('RDDSTLVIGHNTGALAHRINDPQHAGSIVTAIKQETDLDVTIECVVGTDPKAAGFSEPENKKVWNPEPKPEPKPEPKPEPKPEPEPAPASDNVWGAPAPLGGGQPATPPPPPVERFSPAKATAPQPPAAPQPVQEAPKPRWQQAAERGMRKMEERAKRPSFSDGVPLPPEPEEPDVPPDLYGYPADEGIPEPQTPQATSNYVVDHDEEEEMVREAAQGVGNRDHRDAMTVAVDILSEELGARQL', 'not soluble'),
  ('MGSDKIHHHHHHMSHIIKIFPSNIEFSGREDESILDAALSAGIHLEHSCKAGDCGICESDLLAGEVVDSKGNIFGQGDKILTCCCKPKTALELNAHFFPELAGQTKKIVPCKVNSAVLVSGDVMTLKLRTPPTAKIGFLPGQYINLHYKGVTRSYSIANSDESNGIELHVRNVPNGQMSSLIFGELQENTLMRIEGPCGTFFIRESDRPIIFLAGGTGFAPVKSMVEHLIQGKCRREIYIYWGMQYSKDFYSALPQQWSEQHDNVHYIPVVSGDDAEWGGRKGFVHHAVMDDFDSLEFFDIYACGSPVMIDASKKDFMMKNLSVEHFYSDAFTASNNIEDNL', 'not soluble'),
  ('MNQIIENAFVKVEVSPHGAELQSIFNKQFHLEYLWQGDPAVWPRKAPVLFPIVGKVKDNQYTISGKTYSLSQHGFARDNAFTLVSATDTTLVYRLTHSEDSFKNFPYEFELDISYSIEHSILKVAYKIHNSSGTSDLYYSIGAHPGFRCPLVEGETFEDYYLEFEKAEKLNRVLLDGGLRGDQTEPVPLTNNKLPLSVNLFGSKDAIVVSGLHSERISLKSNKSVHGLHFDYKNYPWFGIWSKPGPFVCLEPWMGVADDIHAAGDFIKKESIQFLQPKAEALFTYSIELFLEHHHHHH', 'not soluble'),
  ('MKLTGKQTWVFEHPIFVNSAGTAAGPKEKDGPLGSLFDKTYDEMHCNQKSWEMAERQLMEDAVNVALQKNNLTKDDIDLLLAGDLLNQNVTANYVARHLKIPFLCMFGACSTSMETVAVASALVDGGFAKRALAATSSHNATAERQFRYPTEYGGQKPDTATSTVTGSGAVVISQTPGDIQITSATVGKVSDLGITDPFDMGSAMAPAAADTIKQHFKDLNRTADDYDLILTGDLSGVGSPIVKDILKEDGYPVGTKHDDCGLLIYTPDQQVFAGGSGCACSAVVTYSHIFKQLREGKLNRVFVVATGALLSPTMIQQKETIPTIAHGVVFERAGGASLEHHHHHH', 'soluble'),
  ('MLTKVIEQAKIDHFTKWFERADKIVIVSHVSPDGDAIGSSLGLYHFLDSQEKTVNVIVPNAFPDFLRWMPGSKDILLYDRYKDFADKLIAEADVICCLDFNALKRIDEMADAVAASPARKVMIDHHLYPEEFCKITMSYPKISSTSELIFRLICRMGYFSDISKEGAECIYTGMMTDTGGFTYNSNNREIYFIISELLSKGIDKDDIYRKVYNTYSESRLRLMGYVLSNMVVYSDYNAALISLTKEEQSKFDYIKGDSEGFVNIPLTIKNVCFSCFLREDTEKPMIKISLRSVGTFPCNQLAAEFFNGGGHLNASGGEFFGTIEEAKAVFEQALEKYKPLLTAKSLEHHHHHH', 'soluble');

---

# assay overview: soluble on expression in E. coli; label from the status in PepcDB or PDB records
quantity: soluble on expression in E. coli

INSERT INTO measurements (monomer_sequence, val) VALUES
  ('MLPVSCKLPNMGTYQSYLSSSMPAGCVLPVGGNFEILLHYYLLNYAKKCHQSEETMVSMIIANALLGIPKVLYKSKTGKYSFPHTYIRAVHALQTNQPLVSSQTGLESVMGKYQLLTSVLQCLTKILTIDMVITVKRHPQKVHNQDSEDELLEHHHHHH', 'not soluble'),
  ('MQPTPTQRPEAIVHDEKAQLDFARDMSYGDYLHLDELLGAQHPLSPEHNEMLFIVQHQTSELWMKLMLHELRAAIAAIQQDRLQPAFKMLARVSKILEQLVSAWDVLATMTPPEYSALRPYLAHSSGFQSYQYRQIEYLLGNKNAAMLQPHAHRADLLAQVRAAFEAPSLYDEALRFLARSGLAVPAGALQRDWTQPYRADDQVEQAWLTVYRQSERYWNQYQLGEKLTDLEDAFRLWRFRHVTTVERIIGFKRGTGGTSGVTYLRKMLEVVLFPEIWKLRTDLLEHHHHHH', 'not soluble'),
  ('RPAPLWAVVADAAVQPAMAAGNDDFETARALDTARELVAGLREGVDSLGGDVAEFKAAIPQHNFEQICDGCFAPIDPGVEPDYVVAHRVSCCMIYHSPTAGKCTSCPHQDKDVRKNALIAASESF', 'not soluble'),
  ('GGVIATQMTYKVYMSGTVNGHYFEVEGDGKGRPYEGEQTVKLTVTKGGPLPFAWDILSPQCQYGSIPFTKYPEDIPDYVKQSFPEGFTWERIMNFEDGAVCTVSNDSSIQGNCFTYHVKFSGLNFPPNGPVMQKKTQGWEPSSERLFARGGMLIGNNFMALKLEGGGHYLCEFKTTYKAKKPVKMPGYHYVDRKLDVTNHNKDYTSVEQCEISIARKPVVA', 'soluble'),
  ('MGSDKIHHHHHHMKFIVSSTALFSHLQAVSRVINSKNALPILDCFLFQLEDGTLSVTVSDSETTMVTSVEVNESDSNGKFAVAAKTLLDALKEIPEQPLTFDIKPDTYEITVQYQNGKYSLMGQNADEFPQSATLGDNAVRVEMEAQILLGGINRSVFATADDELRPVMNGIYFDITTEDITMVASDGHKLVRCKTLAARGNERAAFILPKKPATLLKNLLPKESGMVVIEFDERNAVFTLESYRMVCRLIEGRYPNYNSVIPQNNPHKVTVDRMQLMGALRRVSIFSSQASSLIKLRMQENQIVVSAQDIDFSTSAEETQVCQYAGAAMSIGFKSTFLIDILNNISADEVVIELADPSRAGVIIPVEQEENEDLLMLLMPMMLND', 'not soluble'),
  ('MSPHPQPAPEPVIQYIASCKLPTPWGEFVMHGFEEESGQEHVALTLGEVGDGLPVLARLHSECLTGDALFSLRCDCGFQLEAAMEAISKAGRGALLYLRQEGRGIGLINKIRAYKLQDGGADTVEANERLGFPADMRDFRIARHMLAHLGIGSVKVMTNNPRKLATLEAAGIAVVERVPLQVGRNPYNDRYLDTKAAKLGHMLLKLEHHHHHH', 'soluble');
